System: SFV-Rluc | Read-out: SFV replication % left (surviving fraction, remaining percentage of SFV replication)
Structures can show the parent of a compound that is named as a salt.
The reply should contain only the number, in %.

Examples with answers:
Request the reported SFV replication % left (surviving fraction, remaining percentage of SFV replication) associated with Cl.Cl.OCCN1CCN(CC/C=C2/c3ccccc3Sc3ccc(C(F)(F)F)cc32)CC1 [Cis(Z)-Flupentixol dihydrochloride]
92.6

Now the same for O=C(O)c1cc(O)ccc1O [2,5-Dihydroxybenzoic acid]
127.8

Now the same for O=C1CN(/N=C/c2ccc([N+](=O)[O-])o2)C(=O)N1 [Nitrofurantoin]
58.9

Next:
Request the reported SFV replication % left (surviving fraction, remaining percentage of SFV replication) associated with CN(C)CCOC(c1ccccc1)c1ccccc1 [Diphenhydramine hydrochloride]
41.0

Now the same for O=C(O)/C=C/c1ccc(O)c(O)c1 [Caffeic acid]
98.7

----------
tested on: SFV-Rluc
Quick rule for you: SFV replication % left (surviving fraction, remaining percentage of SFV replication) under 80% gets satisfied, anything else gets not satisfied.

For orientation, consider the following solved cases.
Determine whether this compound shows SFV replication % left (surviving fraction, remaining percentage of SFV replication) lower than 80% (ties excluded): `C[C@]12CC[C@H](O)C[C@H]1CC[C@@H]1[C@@H]2CC[C@]2(C)[C@@H](C3=CC(=O)OC3)[C@@H](O)C[C@]12O`
not satisfied

Now the same for O=C(O)c1ccc(O)cc1O [2,4-Dihydroxylbenzoic acid]
satisfied

Now the same for `CCN(CC)CCOC(=O)c1ccc(N)cc1.Cl`
not satisfied

Next:
Determine whether this compound shows SFV replication % left (surviving fraction, remaining percentage of SFV replication) lower than 80% (ties excluded): CC(C)NCC(O)COc1ccc(CC(N)=O)cc1 (stereo not drawn)
satisfied

Now the same for `CC(C)(CO)[C@@H](O)C(=O)NCCC(=O)[O-].CC(C)(CO)[C@@H](O)C(=O)NCCC(=O)[O-].O.[Ca+2]`
not satisfied

Now the same for `COc1cc2ccc(=O)oc2c(O)c1O`
not satisfied

Now the same for `Cc1ccnc(NS(=O)(=O)c2ccc(N)cc2)n1`
not satisfied

Now the same for `O=C(O)/C=C/c1ccccc1O`
satisfied

----------
test system: SFV; assay: Viral yield analysis using a plaque assay; format: cell-based, Semliki Forest virus (SFV); conditions: BHK cells, MOI 0.01, 50 µM compound, 16 h; untreated control 1.4×10^9 PFU/ml
quantity measured: SFV yield

Request the reported SFV yield associated with `O=c1cc(-c2ccccc2)oc2cc(O)cc(O)c12`
2.9×10^8 PFU/ml

Now the same for COc1c(C)c2c(c(O)c1C/C=C(\C)CCC(=O)O)C(=O)OC2 [Mycophenolic acid, reference compound]
1.2×10^8 PFU/ml

Now the same for `Nc1ncnc2c1ncn2[C@@H]1O[C@H](CO)[C@@H](N)[C@H]1O`
2.7×10^7 PFU/ml

API: the following record is the query input.
Request the reported SFV yield associated with `OCCN1CCN(CCCN2c3ccccc3C=Cc3ccccc32)CC1`
2.5×10^8 PFU/ml

----------
System: SFV-Rluc | Read-out: SFV replication % left (surviving fraction, remaining percentage of SFV replication)
The reply should contain only the number, in %.

Examples with answers:
Request the reported SFV replication % left (surviving fraction, remaining percentage of SFV replication) associated with `COc1cc2ccc(=O)oc2c(O)c1OC`
77.8

Now the same for `Cc1ccc(C)c(O)c1`
84.6

Now the same for `O=C1O[C@H]([C@@H](O)CO)C(O)=C1O`
81.4

Next:
Request the reported SFV replication % left (surviving fraction, remaining percentage of SFV replication) associated with `CCCCC1(CC)C(=O)NC(=O)NC1=O`
45.2

Now the same for CC(C)(C)NCC(O)COc1ccc(NC(=O)NC2CCCCC2)cc1 (stereo not shown)
76.9

Now the same for `O=c1c(-c2ccc(O)cc2)coc2cc(O)cc(O)c12`
45.6
